Field: OD450. Provide a value for each of the binders that follow.
# subjectOfTest: T1, naked peptide 1a MTPTDFTSPIPNMADDYGSESTSS (human)
# T1 construct: also called region 1-24
# T1 peptide: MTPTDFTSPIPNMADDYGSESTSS
# assayOverview: ELISA naked 24-mer; repI
Kindly provide the numeric value in OD only, without the unit symbol.

Query: Given the entry Comparative antibody 3 (Comp-3) scFv, SR_92R (Somovilla-Crespo et al. 2018), His-tagged (scFv) scFv: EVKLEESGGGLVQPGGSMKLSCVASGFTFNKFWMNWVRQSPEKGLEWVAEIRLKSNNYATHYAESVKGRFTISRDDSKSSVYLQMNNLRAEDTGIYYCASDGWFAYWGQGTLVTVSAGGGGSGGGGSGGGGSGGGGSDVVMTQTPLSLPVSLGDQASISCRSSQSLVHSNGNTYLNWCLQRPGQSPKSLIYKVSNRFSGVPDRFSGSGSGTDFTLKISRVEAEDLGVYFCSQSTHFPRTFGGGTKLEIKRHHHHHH , report its measured OD450.
Reply: 1.38

Query: What do you have for Comparative antibody 2 (Comp-2) scFv, 243LO326 (VH SEQ ID NO: 51 and VL SEQ ID NO: 52 of WO 2022/195028 A2), His-tagged (scFv) scFv: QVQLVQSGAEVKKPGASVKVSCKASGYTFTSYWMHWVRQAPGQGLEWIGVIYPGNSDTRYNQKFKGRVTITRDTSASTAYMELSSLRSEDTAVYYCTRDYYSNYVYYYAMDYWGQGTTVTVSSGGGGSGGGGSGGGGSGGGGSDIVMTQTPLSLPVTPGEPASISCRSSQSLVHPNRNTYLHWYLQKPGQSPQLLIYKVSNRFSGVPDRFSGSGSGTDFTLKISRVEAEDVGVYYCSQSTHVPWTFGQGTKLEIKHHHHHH ?
Reply: 0.09

Query: Queued: Comparative antibody 1 (Comp-1) scFv, SEQ ID NO: 10 from WO2023/037125 A1, His-tagged (scFv) scFv: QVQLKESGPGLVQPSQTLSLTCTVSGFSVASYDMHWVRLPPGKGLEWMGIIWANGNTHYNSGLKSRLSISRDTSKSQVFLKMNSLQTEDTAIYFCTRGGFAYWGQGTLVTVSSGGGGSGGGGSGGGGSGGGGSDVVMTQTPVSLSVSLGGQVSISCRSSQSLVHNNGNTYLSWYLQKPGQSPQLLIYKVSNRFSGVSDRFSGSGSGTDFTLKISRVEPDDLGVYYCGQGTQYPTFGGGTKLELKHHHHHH
Reply: 0.08
